# measurementTarget: immunoproteasome LMP7/B5i subunit (Homo sapiens)
# assayProcedure: Caliper-based proteasome enzymatic activity assay, LMP7
# Assay type: biochemical
# recordedConditions: human recombinant immunoproteasome 0.3 nM, FAM-labeled peptide substrate 1 μM, rt 3 h; read-out: LMP7 subunit IC50
measuredQuantity: IC50 (nM)
# output: bare number, implied unit nM

Which IC50 value belongs to CC(C)(C=C(C#N)C(=O)N1CCC[C@@H]1CNC(=O)N[C@@H](Cc1coc2ccccc12)B(O)O)N1CCC(F)(F)CC1 ?
5.3

Which IC50 value belongs to CC(C)C=C(C#N)C(=O)NCCCC[C@H](NC(=O)[C@@H](NC(=O)C(C)C)[C@@H](C)O)C(=O)N[C@@H](Cc1ccccc1)B(O)O ?
6.6

Which IC50 value belongs to CC(C)C=C(C#N)C(=O)N1CCC[C@H]1CNC(=O)N[C@@H](Cc1ccccc1)B(O)O ?
231

Which IC50 value belongs to CC(C)(C=C(C#N)C(=O)N1C2CCC1(COC(=O)N[C@@H](Cc1ccccc1)B(O)O)CC2)N1CCC(F)(F)C1 ?
2.6

Which IC50 value belongs to C=CC(=O)N1CC(COC(=O)N[C@@H](Cc2ccccc2)B(O)O)C1 ?
59.1

Which IC50 value belongs to CC(C)(C=C(C#N)C(=O)N1CCC[C@@H](CC(=O)N[C@@H](Cc2ccccc2)B(O)O)C1)N1CCC(F)(F)C1 ?
21

Which IC50 value belongs to CC(C)C=C(C#N)C(=O)N1CCC[C@@H]1COC[C@H](NCC(F)(F)F)C(=O)N[C@@H](Cc1coc2ccccc12)B(O)O ?
11.6

Which IC50 value belongs to CC(C)C=C(C#N)C(=O)NCCCC[C@H](NCC(F)(F)F)C(=O)N[C@@H](Cc1ccccc1)B(O)O ?
67.1

Which IC50 value belongs to CC(C)C=C(C#N)C(=O)N1CCC[C@@H]1COC[C@H](NCC(F)(F)F)C(=O)N[C@@H](Cc1ccccc1)B(O)O ?
35

Which IC50 value belongs to C=CC(=O)N1CCC[C@@H]1CNC(=O)N[C@@H](Cc1coc2ccccc12)B(O)O ?
30

Which IC50 value belongs to CC(C)(C=C(C#N)C(=O)N1C2CCC1(COC(=O)N[C@@H](Cc1ccccc1)B(O)O)CC2)N1CCOCC1 ?
1.8

Which IC50 value belongs to C=CC(=O)N1CC[C@H]1COC(=O)N[C@@H](Cc1ccccc1)B(O)O ?
256

Which IC50 value belongs to CC1(OC(=O)N[C@@H](Cc2ccc(F)cc2)B(O)O)CCCN(C(=O)C(C#N)=CC(C)(C)N2CCC(F)(F)C2)C1 (mixture of isomers) ?
238

Which IC50 value belongs to CC(C)(C=C(C#N)C(=O)N1CC[C@H](COC(=O)N[C@@H](Cc2ccccc2)B(O)O)C1)N1CCOCC1 ?
19.3

====

# measurementTarget: immunoproteasome LMP7/B5i subunit (Homo sapiens)
# assayProcedure: Caliper-based proteasome enzymatic activity assay, LMP7
# Type: biochemical
# recordedConditions: human recombinant immunoproteasome 0.3 nM, FAM-labeled peptide substrate 1 μM, rt 3 h; read-out: LMP7 subunit IC50
Could you please report measured IC50 for the items listed next?
# output: bare number, implied unit nM

Which IC50 value belongs to CC(C)(C)C=C(C#N)C(=O)N1CCC[C@H]1CNC(=O)N[C@@H](Cc1ccccc1)B(O)O [Example 39] ?
78.8

Which IC50 value belongs to CC(C)(C=C(C#N)C(=O)N1CCC[C@H](OC(=O)N[C@@H](Cc2ccccc2)B(O)O)C1)N1CCN2C(=O)OC[C@@H]2C1 [Example 97] ?
7.7

Which IC50 value belongs to CC(C)C=C(C#N)C(=O)NCCCC[C@H](NC(=O)c1cnccn1)C(=O)N[C@@H](Cc1ccccc1)B(O)O [Example 5] ?
12.3

Which IC50 value belongs to CC(C)(C=C(C#N)C(=O)N1C2CCC1(COC(=O)N[C@@H](Cc1ccccc1)B(O)O)CC2)N1CC2CC(C1)O2 [Example 132] ?
0.8

Which IC50 value belongs to CC#CC(=O)N(C)c1cccc(C[C@H](NC(=O)c2cc(Cl)ccc2Cl)C(=O)N[C@@H](Cc2ccccc2)B(O)O)c1 [Example 18] ?
7.3

Which IC50 value belongs to CC(C)(C=C(C#N)C(=O)N1CCC[C@@H]1CNC(=O)N[C@@H](Cc1coc2ccccc12)B(O)O)N1CCC(F)(F)C1 [Example 50] ?
4

Which IC50 value belongs to CC(C)(C=C(C#N)C(=O)N1CCC[C@@H](OC(=O)N[C@@H](Cc2ccccc2)B(O)O)C1)N1CCC(F)(F)C1 [Example 55] ?
5.1

Which IC50 value belongs to C[C@@H]1CN(C(C)(C)C=C(C#N)C(=O)N2CCCC[C@@H](OC(=O)N[C@@H](Cc3ccccc3)B(O)O)C2)CCO1 [Example 131] ?
2.6

Which IC50 value belongs to CC(C)(C)C=C(C#N)C(=O)N1CCC[C@@H]1CNC(=O)N[C@@H](Cc1coc2ccccc12)B(O)O [Example 45] ?
4.7

Which IC50 value belongs to C=CC(=O)N1CC[C@@H]1COC(=O)N[C@@H](Cc1coc2ccccc12)B(O)O [Example 62] ?
2.3

Which IC50 value belongs to CC(C)(C=C(C#N)C(=O)N1CCC[C@H](OC(=O)N[C@@H](Cc2ccccc2)B(O)O)C1)N1CCN2C(=O)OC[C@H]2C1 [Example 98] ?
5.6

Which IC50 value belongs to CC(C)(C)C=C(C#N)C(=O)N1CCC[C@@H]1COC[C@H](NCC(F)(F)F)C(=O)N[C@@H](Cc1ccccc1)B(O)O [Example 24] ?
26

Which IC50 value belongs to CC(C)(C)C=C(C#N)C(=O)N1CCCC[C@H]1CNC(=O)N[C@@H](Cc1ccccc1)B(O)O [Example 40] ?
669

Which IC50 value belongs to C[C@@H]1CN(C(C)(C)C=C(C#N)C(=O)N2CCCC[C@@H](OC(=O)N[C@@H](Cc3ccccc3)B(O)O)C2)C[C@H](C)O1 [Example 127] ?
2.4

Which IC50 value belongs to CC1(C)CN(C(C)(C)C=C(C#N)C(=O)N2C3CCC2(COC(=O)N[C@@H](Cc2ccccc2)B(O)O)CC3)CCO1 [Example 119] ?
1

Which IC50 value belongs to CC(C)(C=C(C#N)C(=O)N1CCC[C@H](OC(=O)N[C@@H](Cc2ccc(F)cc2)B(O)O)C1)N1CCC(F)(F)C1 [Example 78] ?
2.3

Which IC50 value belongs to CC(C)C=C(C#N)C(=O)NCCCC[C@H](NC(=O)[C@H](C)NC(=O)C(C)C)C(=O)N[C@@H](CC(C)C)B(O)O [Example 1] ?
20.9

Which IC50 value belongs to CC(C)C=C(C#N)C(=O)NCCCC[C@H](NC(=O)c1cnccn1)C(=O)N[C@@H](CC(C)C)B(O)O [Example 2] ?
12.8

Which IC50 value belongs to CC(C)(C=C(C#N)C(=O)N1C[C@H](F)[C@H](OC(=O)N[C@@H](Cc2ccccc2)B(O)O)C1)N1CCC(F)(F)C1 [Example 111] ?
1.9

Which IC50 value belongs to C=CC(=O)N1C[C@H](F)[C@H](OC(=O)N[C@@H](Cc2ccccc2)B(O)O)C1 [Example 115] ?
18.3

Which IC50 value belongs to C=CS(=O)(=O)N(C)c1cccc(C[C@H](NC(=O)c2cc(Cl)ccc2Cl)C(=O)N[C@@H](Cc2ccccc2)B(O)O)c1 [Example 16] ?
4.3

Which IC50 value belongs to CC(=O)N[C@@H](CCCCNC(=O)C(C#N)=CC(C)C)C(=O)N[C@@H](Cc1ccccc1)B(O)O [Example 11] ?
2.6

Which IC50 value belongs to C=CC(=O)N1CC[C@H](OC(=O)N[C@@H](Cc2ccccc2)B(O)O)C1 [Example 88] ?
113

Which IC50 value belongs to CC(C)(C=C(C#N)C(=O)N1C2CCC1(COC(=O)N[C@@H](CCc1ccccc1)B(O)O)CC2)N1CCC(F)(F)C1 [Example 77] ?
0.9

Which IC50 value belongs to CC(C)(C=C(C#N)C(=O)N1CCC[C@@H]1CNC(=O)N[C@@H](Cc1coc2ccccc12)B(O)O)N1CCN(C2COC2)CC1 [Example 48] ?
8.7

Which IC50 value belongs to CC(C)(C=C(C#N)C(=O)N1CC[C@H](COC(=O)N[C@@H](Cc2ccccc2)B(O)O)C1)N1CCC(F)(F)C1 [Example 95] ?
6.9

Which IC50 value belongs to CN1CCN(C(C)(C)C=C(C#N)C(=O)N2CCC[C@H](OC(=O)N[C@@H](Cc3ccccc3)B(O)O)C2)CC1 [Example 80] ?
3.9
